molecular target: T1, Nat1 (LTIITLE) (also: TFA salt); experiment: cell-based or functional assay
T1 peptide: LTIITLE
Non-standard residues stand in square brackets, D forms with d. No end group written: not given here.
binders and their reported IC50, Thiofiavin T aggregation assay
test.readout: IC50, Thiofiavin T aggregation assay (nM)

- binder: "Ac-IRIRRYR-NH2 [Ac-IRIRRYR-NH2]"
  readout.value: 69
- binder: "WYIRLWK"
  readout.value: 262
- binder: "IRVYKYS"
  readout.value: 480
- binder: "IRIRAAR"
  readout.value: 451
- binder: "[dF][dW][dR][dW][dA][dR][dR] [fwrwarr]"
  readout.value: 176
- binder: "[dR][dQ][dH][dY][dR][dW][dR] [rqhyrwr]"
  readout.value: 210
- binder: "[dY][dQ][dY][dY][dF][dW][dR] [yqyyfwr]"
  readout.value: 181

Cited source: patent US20200062804A1
